Origin of measurements: ChEMBL document CHEMBL4507326

Biological target: Tyrosine-protein kinase TXK (Homo sapiens)
Sequence (P42681 whole entry): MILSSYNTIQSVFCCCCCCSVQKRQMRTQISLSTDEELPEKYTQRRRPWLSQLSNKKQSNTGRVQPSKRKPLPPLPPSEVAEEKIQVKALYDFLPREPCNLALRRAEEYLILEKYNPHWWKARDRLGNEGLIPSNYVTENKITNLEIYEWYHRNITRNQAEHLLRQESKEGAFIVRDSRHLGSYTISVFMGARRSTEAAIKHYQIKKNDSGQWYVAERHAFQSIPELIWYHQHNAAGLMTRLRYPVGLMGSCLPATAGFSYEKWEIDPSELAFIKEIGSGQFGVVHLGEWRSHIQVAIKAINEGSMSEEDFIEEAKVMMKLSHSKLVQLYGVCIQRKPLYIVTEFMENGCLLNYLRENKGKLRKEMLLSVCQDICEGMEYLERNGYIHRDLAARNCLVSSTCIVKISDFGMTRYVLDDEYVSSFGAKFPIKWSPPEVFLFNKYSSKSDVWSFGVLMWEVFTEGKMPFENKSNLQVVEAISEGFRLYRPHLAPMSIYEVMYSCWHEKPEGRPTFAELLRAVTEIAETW
pIC50: −log10 of the molar value.
REPORTED ENDPOINT: pIC50

In [3]: df
Out[3]:
                                smiles_data  reported_endpoint  recorded_result
0  CN1C(=O)[C@@H](N2CCc3c(nn(Cc4ccccc4)c3Br)C2=O)COc2ccccc21              pIC50             6.00

* * *

Molecular target: Tyrosine-protein kinase CSK (Homo sapiens, UniProt P41240)
Sequence (P41240 whole entry): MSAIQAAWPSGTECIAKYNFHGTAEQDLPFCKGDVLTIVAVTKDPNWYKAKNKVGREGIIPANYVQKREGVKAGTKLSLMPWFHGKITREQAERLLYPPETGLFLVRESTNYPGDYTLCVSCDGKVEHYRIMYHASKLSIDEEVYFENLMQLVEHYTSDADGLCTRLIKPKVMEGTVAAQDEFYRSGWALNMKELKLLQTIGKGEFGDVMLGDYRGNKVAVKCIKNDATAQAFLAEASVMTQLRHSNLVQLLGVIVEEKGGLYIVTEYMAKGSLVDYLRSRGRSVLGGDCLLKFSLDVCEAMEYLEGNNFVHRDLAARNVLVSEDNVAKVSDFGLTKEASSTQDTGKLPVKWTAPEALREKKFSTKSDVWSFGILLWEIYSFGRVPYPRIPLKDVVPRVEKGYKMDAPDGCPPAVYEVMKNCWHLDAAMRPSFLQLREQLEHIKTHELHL
pIC50: −log10 of the molar value.
REPORTED ENDPOINT: pIC50

                                   molecule  recorded_result
0  CN1C(=O)[C@@H](N2CCc3c(nn(Cc4ccccc4)c3Br)C2=O)COc2ccccc21 [TP-030-2]             6.00
